- Test system: Plasmodium falciparum
- Assay procedure: GSK_TCMDC: Inhibition of Plasmodium falciparum 3D7 in whole red blood cells, using parasite LDH activity as an index of growth. Test compounds present at 2uM
- Type: functional
Measured parameter: Inhibition (%)
Entry rule: numbers only, all in %.

The following compounds have reported results that may help.
[
  {
    "Mol smiles": "CC[C@H](C)[C@@H](C(=O)N1CCOCC1)N1CC[C@H](NS(=O)(=O)CC(C)(C)c2ccc(Cl)cc2)C1=O",
    "Measure unit": "%",
    "Inhibition": 100
  },
  {
    "Mol smiles": "Cc1nc(-c2nc(NCCc3cnccn3)ncc2-c2ccsc2)sc1C",
    "Measure unit": "%",
    "Inhibition": 98
  },
  {
    "Mol smiles": "COc1ccc(-c2cnc3ccc(NCc4ccc(S(N)(=O)=O)cc4)nn23)cn1",
    "Measure unit": "%",
    "Inhibition": 98
  }
]

Inquiry: May I ask what Inhibition has been recorded for `CCC1(CC)NC(N)=NC(=N)N1OCc1ccc(Cl)c(Cl)c1.Cl` ?
Reply text: 94

Inquiry: Then what about the compound `CCOc1cccc(C(=O)Nc2cccc(CN3CCCN(Cc4cccc(O)c4)CC3)c2)c1.O=C(O)C(F)(F)F` ?
Reply text: 85
